# test.system: ELK1 (Homo sapiens, UniProt P19419 1-428)
# Sequence: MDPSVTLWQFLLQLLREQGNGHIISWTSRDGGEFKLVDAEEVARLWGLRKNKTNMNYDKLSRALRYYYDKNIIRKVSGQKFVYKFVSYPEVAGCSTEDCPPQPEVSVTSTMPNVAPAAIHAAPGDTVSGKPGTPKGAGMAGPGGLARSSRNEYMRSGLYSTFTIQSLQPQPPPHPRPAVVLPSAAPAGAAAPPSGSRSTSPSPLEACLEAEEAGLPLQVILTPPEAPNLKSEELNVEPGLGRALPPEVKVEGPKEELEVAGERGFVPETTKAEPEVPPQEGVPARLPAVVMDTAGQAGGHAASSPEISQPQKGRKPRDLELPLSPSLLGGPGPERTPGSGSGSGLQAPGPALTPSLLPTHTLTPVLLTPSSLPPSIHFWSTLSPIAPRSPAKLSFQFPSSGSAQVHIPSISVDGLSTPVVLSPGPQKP
# experiment: custom PBM; custom protein-binding microarray; buffer, salt, pH and temperature not stated; high values mean tight binding
# run.parameters: dsDNA, one strand shown
Whole data set: some 1,300 sequences, median “log fluorescence intensity” near 8.9, cut for the highest 2% near 13. The sample holds the highest values, similar sequences and a random draw of the others, so the mix is not that of the screen.
measured.metric: binding signal

- ordered.residues: "CAGCATAGGACTTCTTCCCTGAAGCAAGTGATAACCGTCTTGATTCGCTTGACGCTGCTG"
  binding signal: "8.97 log fluorescence intensity"
- ordered.residues: "TAAAGGGAAGACGGTTGTGGTAGTTCCGGGTTTTAAGTCTTGATTCGCTTGACGCTGCTG"
  binding signal: "11.2 log fluorescence intensity"
- ordered.residues: "CACTATTTTTACAGTAATGTAGCACGCGTAACTCCTGTCTTGATTCGCTTGACGCTGCTG"
  binding signal: "8.94 log fluorescence intensity"
- ordered.residues: "CAGCATAGGACTTCTTCCCTGAAGCAATAGATAACCGTCTTGATTCGCTTGACGCTGCTG"
  binding signal: "8.97 log fluorescence intensity"

# evaluate next
Any idea what its binding signal is? The sequence is TACTGACTTATATATGCTAATGCACATGAATAGACCGTCTTGATTCGCTTGACGCTGCTG
8.92 log fluorescence intensity
